Source of measurements: patent US20250197467A1

Biological target: T1, IL-18 receptor (IL-18Rαβ) on cells (UniProt Q13478 19-541; O95256 20-599, limits assumed)
T1 sequence (looked up) 1: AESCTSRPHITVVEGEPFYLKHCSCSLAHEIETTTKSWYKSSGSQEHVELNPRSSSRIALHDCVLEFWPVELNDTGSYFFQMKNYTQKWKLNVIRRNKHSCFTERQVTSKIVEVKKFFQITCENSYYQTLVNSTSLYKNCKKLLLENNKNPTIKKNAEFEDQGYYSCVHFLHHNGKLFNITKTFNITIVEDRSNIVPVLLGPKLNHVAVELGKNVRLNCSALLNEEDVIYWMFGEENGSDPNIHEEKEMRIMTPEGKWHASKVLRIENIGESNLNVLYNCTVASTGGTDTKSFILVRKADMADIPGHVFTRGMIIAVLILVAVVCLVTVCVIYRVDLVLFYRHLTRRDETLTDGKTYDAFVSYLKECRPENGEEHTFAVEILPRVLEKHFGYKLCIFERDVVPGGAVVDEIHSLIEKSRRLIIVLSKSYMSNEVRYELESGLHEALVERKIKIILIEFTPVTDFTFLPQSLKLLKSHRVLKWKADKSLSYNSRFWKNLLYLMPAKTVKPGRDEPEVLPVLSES
T1 sequence (looked up) 2: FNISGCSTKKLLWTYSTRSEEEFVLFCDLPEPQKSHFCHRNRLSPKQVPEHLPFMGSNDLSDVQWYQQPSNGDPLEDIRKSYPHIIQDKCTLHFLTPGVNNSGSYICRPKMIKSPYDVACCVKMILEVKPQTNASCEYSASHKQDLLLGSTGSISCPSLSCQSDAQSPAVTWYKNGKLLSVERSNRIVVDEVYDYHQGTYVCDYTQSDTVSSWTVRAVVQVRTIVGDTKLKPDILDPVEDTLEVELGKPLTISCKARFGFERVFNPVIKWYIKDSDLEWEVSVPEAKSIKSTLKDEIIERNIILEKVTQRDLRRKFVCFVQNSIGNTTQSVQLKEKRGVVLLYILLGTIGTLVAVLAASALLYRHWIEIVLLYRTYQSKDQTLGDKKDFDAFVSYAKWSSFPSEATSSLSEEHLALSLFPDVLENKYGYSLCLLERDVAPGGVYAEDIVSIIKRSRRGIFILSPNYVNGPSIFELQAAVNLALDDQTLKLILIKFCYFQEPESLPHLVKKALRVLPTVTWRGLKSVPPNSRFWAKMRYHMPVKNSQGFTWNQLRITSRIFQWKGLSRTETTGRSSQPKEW
Experiment: cell-based or functional assay
Field: HEK-Blue IL-18R reporter EC50. Provide a value for each of the binders that follow.
Hi! Could you send only the number? It should be in pM, unit omitted.

(Q) HEK-Blue IL-18R reporter EC50 lookup needed for C143 (ligand) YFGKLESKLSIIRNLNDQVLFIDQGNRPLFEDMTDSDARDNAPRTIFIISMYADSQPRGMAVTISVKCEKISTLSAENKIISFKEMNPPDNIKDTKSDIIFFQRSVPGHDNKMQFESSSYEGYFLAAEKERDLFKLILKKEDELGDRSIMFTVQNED , thanks.
(A) 0.98

(Q) // query HEK-Blue IL-18R reporter EC50 value for entry C152 (ligand) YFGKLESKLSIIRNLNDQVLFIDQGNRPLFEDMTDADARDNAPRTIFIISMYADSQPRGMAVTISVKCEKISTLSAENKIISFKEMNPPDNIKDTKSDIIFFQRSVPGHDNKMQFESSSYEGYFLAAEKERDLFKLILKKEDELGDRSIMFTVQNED
(A) 0.25

(Q) Look at this binder and give its reported HEK-Blue IL-18R reporter EC50. C155 (ligand) YFGKLESKLSIIRNLNDQVLFIDQGNRPLFEDMTDSDARANAPRTIFIISMYADSQPRGMAVTISVKCEKISTLSAENKIISFKEMNPPDNIKDTKSDIIFFQRSVPGHDNKMQFESSSYEGYFLAAEKERDLFKLILKKEDELGDRSIMFTVQNED
(A) 0.52

(Q) Please look up its HEK-Blue IL-18R reporter EC50: C086 (SEQ ID NO: 30) (ligand) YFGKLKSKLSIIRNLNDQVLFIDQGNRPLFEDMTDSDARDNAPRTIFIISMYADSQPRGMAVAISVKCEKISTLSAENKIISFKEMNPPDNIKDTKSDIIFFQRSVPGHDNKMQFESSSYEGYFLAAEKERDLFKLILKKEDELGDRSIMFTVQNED
(A) 0.034

(Q) Form field: reported HEK-Blue IL-18R reporter EC50 of C165 (ligand) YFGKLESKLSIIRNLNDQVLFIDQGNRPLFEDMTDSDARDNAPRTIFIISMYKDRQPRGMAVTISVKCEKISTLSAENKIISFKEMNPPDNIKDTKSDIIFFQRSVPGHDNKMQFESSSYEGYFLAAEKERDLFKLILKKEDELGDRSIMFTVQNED
(A) 1.91

(Q) Consider the binder shown here: C157 (ligand) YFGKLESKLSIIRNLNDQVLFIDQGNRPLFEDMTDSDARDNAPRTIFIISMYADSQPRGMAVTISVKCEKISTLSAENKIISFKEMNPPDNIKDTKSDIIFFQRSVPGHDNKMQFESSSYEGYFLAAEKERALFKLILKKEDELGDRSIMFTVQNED What is its recorded HEK-Blue IL-18R reporter EC50?
(A) 1.95

(Q) Which measured HEK-Blue IL-18R reporter EC50 value corresponds to C150 (ligand) YFGKLESKLSIIRNLNDQVLFIDQGNRPLFEDMADSDARDNAPRTIFIISMYADSQPRGMAVTISVKCEKISTLSAENKIISFKEMNPPDNIKDTKSDIIFFQRSVPGHDNKMQFESSSYEGYFLAAEKERDLFKLILKKEDELGDRSIMFTVQNED ?
(A) 0.7
